Sourced from the supplement of paper PMC11246515

Known total protein half-life in vivo of a selection of sequences
- test.description: total protein half-life in vivo (active degradation + dilution); higher = more stable protein
- reported.conditions: E. coli NCM3722 delta-hslV; growth: N-lim chemostat; doubling time 6 h

macromolecule.sequence	total protein half-life in vivo (h)
MVELKEPLATLWRGKDAFAEVKKLNGEVFRELETRRTLRFELSGKSYFLKWHKGTTLKEIIKNLLSLRMPVLGADREWHAIHRLSDVGVDTMKGIGFGEKGLNPLTRASFIITEDLTPTISLEDYCADWAVNPPDIRVKRMLIARVATMVRKMHTAGINHRDCYICHFLLHLPFTGREDELKISVIDLHRAQIRAKVPRRWRDKDLIGLYFSSMNIGLTQRDIWRFMKVYFGMPLRKILSLEQNLLNMASVKAERIKERTQRKGL	6.41
MKKMLLATALALLITGCAQQTFTVQNKQTAVAPKETITHHFFVSGIGQKKTVDAAKICGGAENVVKTETQQTFVNGLLGFITLGIYTPLEARVYCSK	6.21
MVSRKRNSVIYRFASLLLVLMLSACSALQGTPQPAPPVTDHPQEIRRDQTQGLQRIGSVSTMVRGSPDDALAEIKAKAVAAKADYYVVVMVDETIVTGQWYSQAILYRK	7.06
MSRRAGTPTAKKVTQLVNVEEHVEGFRQVREAHRRELIDDYVELISDLIREVGEARQVDMAARLGVSQPTVAKMLKRLATMGLIEMIPWRGVFLTAEGEKLAQESRERHQIVENFLLVLGVSPEIARRDAEGMEHHVSEETLDAFRLFTQKHGAK [P0A9F1]	4.73
MSTLRLLISDSYDPWFNLAVEECIFRQMPATQRVLFLWRNADTVVIGRAQNPWKECNTRRMEEDNVRLARRSSGGGAVFHDLGNTCFTFMAGKPEYDKTISTSIVLNALNALGVSAEASGRNDLVVKTVEGDRKVSGSAYRETKDRGFHHGTLLLNADLSRLANYLNPDKKKLAAKGITSVRSRVTNLTELLPGITHEQVCEAITEAFFAHYGERVEAEIISPNKTPDLPNFAETFARQSSWEWNFGQAPAFSHLLDERFTWGGVELHFDVEKGHITRAQVFTDSLNPAPLEALAGRLQGCLYRADMLQQECEALLVDFPEQEKELRELSAWMAGAVR	4.05
MTAPSQVLKIRRPDDWHLHLRDGDMLKTVVPYTSEIYGRAIVMPNLAPPVTTVEAAVAYRQRILDAVPAGHDFTPLMTCYLTDSLDPNELERGFNEGVFTAAKLYPANATTNSSHGVTSIDAIMPVLERMEKIGMPLLVHGEVTHADIDIFDREARFIESVMEPLRQRLTALKVVFEHITTKDAADYVRDGNERLAATITPQHLMFNRNHMLVGGVRPHLYCLPILKRNIHQQALRELVASGFNRVFLGTDSAPHARHRKESSCGCAGCFNAPTALGSYATVFEEMNALQHFEAFCSVNGPQFYGLPVNDTFIELVREEQQVAESIALTDDTLVPFLAGETVRWSVKQ	5.19
MQNTTHDNVILELTVRNHPGVMTHVCGLFARRAFNVEGILCLPIQDSDKSHIWLLVNDDQRLEQMISQIDKLEDVVKVQRNQSDPTMFNKIAVFFQ [P0ADF8]	1.74

---

- test.description: total protein half-life in vivo (active degradation + dilution); higher = more stable protein
- reported.conditions: E. coli NCM3722 delta-hslV; growth: N-lim chemostat; doubling time 6 h

macromolecule.sequence	total protein half-life in vivo [h]
MATNAKPVYKRILLKLSGEALQGTEGFGIDASILDRMAQEIKELVELGIQVGVVIGGGNLFRGAGLAKAGMNRVVGDHMGMLATVMNGLAMRDALHRAYVNARLMSAIPLNGVCDSYSWAEAISLLRNNRVVILSAGTGNPFFTTDSAACLRGIEIEADVVLKATKVDGVFTADPAKDPTATMYEQLTYSEVLEKELKVMDLAAFTLARDHKLPIRVFNMNKPGALRRVVMGEKEGTLITE [P0A7E9]	4.79
MKPRQRQAAILEYLQKQGKCSVEELAQYFDTTGTTIRKDLVILEHAGTVIRTYGGVVLNKEESDPPIDHKTLINTHKKELIAEAAVSFIHDGDSIILDAGSTVLQMVPLLSRFNNITVMTNSLHIVNALSELDNEQTILMPGGTFRKKSASFHGQLAENAFEHFTFDKLFMGTDGIDLNAGVTTFNEVYTVSKAMCNAAREVILMADSSKFGRKSPNVVCSLESVDKLITDAGIDPAFRQALEEKGIDVIITGESNE	5.66

---

- test.description: total protein half-life in vivo (active degradation + dilution); higher = more stable protein
- reported.conditions: E. coli NCM3722 delta-hslV; growth: N-lim chemostat; doubling time 6 h

macromolecule.sequence	total protein half-life in vivo
MSITLSDSAAARVNTFLANRGKGFGLRLGVRTSGCSGMAYVLEFVDEPTPEDIVFEDKGVKVVVDGKSLQFLDGTQLDFVKEGLNEGFKFTNPNVKDECGCGESFHV [P0AAC8]	0.964 h
MSHLKDPTTQYYTGEYPKQKQPTPGIQAKMTPVPDCGEKTYVGSGRLKDRKALVTGGDSGIGRAAAIAYAREGADVAISYLPVEEEDAQDVKKIIEECGRKAVLLPGDLSDEKFARSLVHEAHKALGGLDIMALVAGKQVAIPDIADLTSEQFQKTFAINVFALFWLTQEAIPLLPKGASIITTSSIQAYQPSPHLLDYAATKAAILNYSRGLAKQVAEKGIRVNIVAPGPIWTALQISGGQTQDKIPQFGQQTPMKRAGQPAELAPVYVYLASQESSYVTAEVHGVCGGEHLG [P0AG84]	5.82 h
MKKSTLALVVMGIVASASVQAAEIYNKDGNKLDVYGKVKAMHYMSDNASKDGDQSYIRFGFKGETQINDQLTGYGRWEAEFAGNKAESDTAQQKTRLAFAGLKYKDLGSFDYGRNLGALYDVEAWTDMFPEFGGDSSAQTDNFMTKRASGLATYRNTDFFGVIDGLNLTLQYQGKNENRDVKKQNGDGFGTSLTYDFGGSDFAISGAYTNSDRTNEQNLQSRGTGKRAEAWATGLKYDANNIYLATFYSETRKMTPITGGFANKTQNFEAVAQYQFDFGLRPSLGYVLSKGKDIEGIGDEDLVNYIDVGATYYFNKNMSAFVDYKINQLDSDNKLNINNDDIVAVGMTYQF	6.65 h

---

- test.description: total protein half-life in vivo (active degradation + dilution); higher = more stable protein
- reported.conditions: wild type E. coli NCM3722; growth: N-lim chemostat; doubling time 12 h
property.label: total protein half-life in vivo (h)

macromolecule.sequence	data.value
MESGHRFDAQTLHSFIQAVFRQMGSEEQEAKLVADHLIAANLAGHDSHGIGMIPSYVRSWSQGHLQINHHAKTVKEAGAAVTLDGDRAFGQVAAHEAMALGIEKAHQHGIAAVALHNSHHIGRIGYWAEQCAAAGFVSIHFVSVVGIPMVAPFHGRDSRFGTNPFCVVFPRKDNFPLLLDYATSAIAFGKTRVAWHKGVPVPPGCLIDVNGVPTTNPAVMQESPLGSLLTFAEHKGYALAAMCEILGGALSGGKTTHQETLQTSPDAILNCMTTIIINPELFGAPDCNAQTEAFAEWVKASPHDDDKPILLPGEWEVNTRRERQKQGIPLDAGSWQAICDAARQIGMPEETLQAFCQQLAS	7.26
MPTKPPYPREAYIVTIEKGKPGQTVTWYQLRADHPKPDSLISEHPTAQEAMDAKKRYEDPDKE [P0AAN5]	8.6
MNLQHHFLIAMPALQDPIFRRSVVYICEHNTNGAMGIIVNKPLENLKIEGILEKLKITPEPRDESIRLDKPVMLGGPLAEDRGFILHTPPSNFASSIRISDNTVMTTSRDVLETLGTDKQPSDVLVALGYASWEKGQLEQEILDNAWLTAPADLNILFKTPIADRWREAAKLIGVDILTMPGVAGHA [P0A8W5]	6.81
MSQPLLSVNGLMMRFGGLLAVNNVNLELYPQEIVSLIGPNGAGKTTVFNCLTGFYKPTGGTILLRDQHLEGLPGQQIARMGVVRTFQHVRLFREMTVIENLLVAQHQQLKTGLFSGLLKTPSFRRAQSEALDRAATWLERIGLLEHANRQASNLAYGDQRRLEIARCMVTQPEILMLDEPAAGLNPKETKELDELIAELRNHHNTTILLIEHDMKLVMGISDRIYVVNQGTPLANGTPEQIRNNPDVIRAYLGEA [P0A9S7]	12.3
MKRQKRDRLERAHQRGYQAGIAGRSKEMCPYQTLNQRSQWLGGWREAMADRVVMA [P0AFW2]	0.686
MRTTSFAKVAALCGLLALSGCASKITQPDKYSGFLNNYSDLKETTSATGKPVLRWVDPSFDQSKYDSIVWNPITYYPVPKPSTQVGQKVLDKILNYTNTEMKEAIAQRKPLVTTAGPRSLIFRGAITGVDTSKEGLQFYEVVPVALVVAGTQMATGHRTMDTRLYFEGELIDAATNKPVIKVVRQGEGKDLNNESTPMAFENIKQVIDDMATDATMFDVNKK	12.8
MMSTTLFKDFTFEAAHRLPHVPEGHKCGRLHGHSFMVRLEITGEVDPHTGWIIDFAELKAAFKPTYERLDHHYLNDIPGLENPTSEVLAKWIWDQVKPVVPLLSAVMVKETCTAGCIYRGE	13.1
MATTHLDVCAVVPAAGFGRRMQTECPKQYLSIGNQTILEHSVHALLAHPRVKRVVIAISPGDSRFAQLPLANHPQITVVDGGDERADSVLAGLKAAGDAQWVLVHDAARPCLHQDDLARLLALSETSRTGGILAAPVRDTMKRAEPGKNAIAHTVDRNGLWHALTPQFFPRELLHDCLTRALNEGATITDEASALEYCGFHPQLVEGRADNIKVTRPEDLALAEFYLTRTIHQENT	8.34
MKKVLIAALIAGFSLSATAAETIRFATEASYPPFESIDANNQIVGFDVDLAQALCKEIDATCTFSNQAFDSLIPSLKFRRVEAVMAGMDITPEREKQVLFTTPYYDNSALFVGQQGKYTSVDQLKGKKVGVQNGTTHQKFIMDKHPEITTVPYDSYQNAKLDLQNGRIDGVFGDTAVVTEWLKDNPKLAAVGDKVTDKDYFGTGLGIAVRQGNTELQQKLNTALEKVKKDGTYETIYNKWFQK	12.2
MRLDKFIAQQLGVSRAIAGREIRGNRVTVDGEIVRNAAFKLLPEHDVAYDGNPLAQQHGPRYFMLNKPQGYVCSTDDPDHPTVLYFLDEPVAWKLHAAGRLDIDTTGLVLMTDDGQWSHRITSPRHHCEKTYLVTLESPVADDTAEQFAKGVQLHNEKDLTKPAVLEVITPTQVRLTISEGRYHQVKRMFAAVGNHVVELHRERIGGITLDADLAPGEYRPLTEEEIASVV [P0AA43]	6.08
MIWKRKITLEALNAMGEGNMVGFLDIRFEHIGDDTLEATMPVDSRTKQPFGLLHGGASVVLAESIGSVAGYLCTEGEQKVVGLEINANHVRSAREGRVRGVCKPLHLGSRHQVWQIEIFDEKGRLCCSSRLTTAIL	9.08
MPKLRLIGLTLLALSATAVSHAEETRYVSDELNTWVRSGPGDHYRLVGTVNAGEEVTLLQTDANTNYAQVKDSSGRTAWIPLKQLSTEPSLRSRVPDLENQVKTLTDKLTNIDNTWNQRTAEMQQKVAQSDSVINGLKEENQKLKNELIVAQKKVDAASVQLDDKQRTIIMQWFMYGGGVLGLGLLLGLVLPHLIPSRKRKDRWMN [P0ADT8]	11.8
MERVYRTDLKLLRYFLAVAEELHFGRAAARLNMSQPPLSIHIKELENQLGTQLFIRHSRSVVLTHAGKILMEESRRLLVNANNVLARIEQIGRGEAGRIELGVVGTAMWGRMRPVMRRFLRENPNVDVLFREKMPAMQMALLERRELDAGIWRMATEPPTGFTSLRLHESAFLVAMPEEHHLSSFSTVPLEALRDEYFVTMPPVYTDWDFLQRVCQQVGFSPVVIREVNEPQTVLAMVSMGIGITLIADSYAQMNWPGVIFRPLKQRIPADLYIVYETQQVTPAMVKLLAALTQ	5.46
MSKRYFVTGTDTEVGKTVASCALLQAAKAAGYRTAGYKPVASGSEKTPEGLRNSDALALQRNSSLQLDYATVNPYTFAEPTSPHIISAQEGRPIESLVMSAGLRALEQQADWVLVEGAGGWFTPLSDTFTFADWVTQEQLPVILVVGVKLGCINHAMLTAQVIQHAGLTLAGWVANDVTPPGKRHAEYMTTLTRMIPAPLLGEIPWLAENPENAATGKYINLALL	9.86
